experimental_system: T1, GST-Omi PDZ fusion protein (human, UniProt O43464 359-458)
T1 construct: also called GST-hOmiPDZ; hOmi PDZ domain; not shown: glutathione S-transferase (GST) encoded by plasmid pGEX6P-3
T1 sequence: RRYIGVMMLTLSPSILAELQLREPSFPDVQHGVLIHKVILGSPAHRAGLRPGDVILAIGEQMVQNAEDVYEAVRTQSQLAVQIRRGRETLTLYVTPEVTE
test_method_notes: competition ELISA, 20 nM GST-Omi PDZ, immobilized biotin-GWTMFWV as competitor
Experimental: Affinity Assays—The binding affinities of peptides for Omi PDZ were determined as IC₅₀ values using a previously described competition ELISA(18). […] After 1 h incubation, the plates were washed with PBS, 0.05% Tween 20, incubated for 30 min with HRP/anti-GST antibody (1:10,000) in PBT buffer, washed again, and detected with 3,3′,5,5′-Tetramethyl-benzidine/H₂O₂ (TMB) peroxidase substrate.
Categories are assigned from the measured IC50 using these intervals: one (below 20 µM), two (20 µM to below 30 µM), three (30 µM or more)

{"binder": "H-SHWWGGW-NH2 (also called SHWWGGW) [hOmi_n1_t2]", "assigned_label": "two"}

Into which bin does this binder go? Ac-SWTMFWA-OH (also called SWTMFWA) [hOmi_c1_A1]
one

Into which bin does this binder go? Ac-GQYYFV-OH (synthetic peptide, optimized ligand reported previously from a chemically synthesized library; also called GQYYFV) [PDZ-Opt]
one

Into which bin does this binder go? H-SHWWGGWL-NH2 [hOmi_n1_t1]
one

Into which bin does this binder go? H-ATEFWWGVG-NH2 (synthetic peptide from libN) [hOmi_n4]
three

Into which bin does this binder go? H-SHWWGGWLG-NH2 (synthetic peptide from libN) [hOmi_n1]
two

Into which bin does this binder go? Ac-SWTMFWV-OH (synthetic peptide from libC; also called SWTMFWV) [hOmi_c1]
one

Into which bin does this binder go? H-SHWW-NH2 (also called SHWW; tetrapeptide (SHWW)) [hOmi_n1_t5]
three

Into which bin does this binder go? Ac-MFWV-OH (also called MFWV) [hOmi_c1_t3]
two

Into which bin does this binder go? Ac-RFPHFWV-OH (synthetic peptide from libC; also called RFPHFWV) [hOmi_c2]
three
